targetDesc: VicK (Streptococcus pneumoniae, UniProt Q8DPL8)
Sequence (Q8DPL8 36-449 limits assumed): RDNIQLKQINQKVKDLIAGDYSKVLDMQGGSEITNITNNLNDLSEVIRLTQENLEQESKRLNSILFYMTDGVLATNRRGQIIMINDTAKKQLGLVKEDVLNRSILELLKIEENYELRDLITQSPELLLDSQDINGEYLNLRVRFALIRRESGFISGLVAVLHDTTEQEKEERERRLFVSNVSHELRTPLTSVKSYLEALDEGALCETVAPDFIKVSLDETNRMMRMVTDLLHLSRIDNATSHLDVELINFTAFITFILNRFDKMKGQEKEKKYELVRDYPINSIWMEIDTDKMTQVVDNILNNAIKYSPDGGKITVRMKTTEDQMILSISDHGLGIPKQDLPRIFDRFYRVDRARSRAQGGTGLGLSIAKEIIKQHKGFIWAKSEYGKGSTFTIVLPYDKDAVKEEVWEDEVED
measuredQuantity: IC50 (µM)
Answer with a number only, understood to be in µM.

Recorded IC50, per entry:
In [3]: df
Out[3]:
                                   molecule  measuredquantity  quantitativeresult
0  Nc1ncnc2c1ncn2[C@@H]1O[C@H](COP(=O)(O)OP(=O)(O)O)[C@@H](O)[C@H]1O [ADP (3), adenosine diphosphate]              IC50                4.81
1  Nc1nc2ccc(OC(F)(F)F)cc2s1 [Compound 12, riluzole]              IC50                 618

Now for a further molecule.
Task item: // lookup IC50 for O=c1cc(-c2ccc(O)c(O)c2)oc2cc(O)cc(O)c12 [Compound 15, luteolin]
Reply: 216
